TESTED_ON: T7 RNA polymerase Y639L/H784A/K378R (LAR) (Bacteriophage T7) (UniProt P00573)
MEASUREMENT_SETUP: 15 mL 2'-OMe NTP transcription, 8 mM MgCl2, 2.5 mM MnCl2
MEASURED_QUANTITY: activity (nmol transcript)

# SEQ_STRING, TESTED_ON, NUMBER
data = [
    ("TAATACGACTCACTATAGGGAGAATTCCGACCACAAGNNNNNNNNNNNNNNNNNNNNNNNNNNNNNNNNNNNNNNNNCATATGTGCGTCTACATGGATCCTCA (double strand) [Template 4]", "T7 RNA polymerase Y639L/H784A/K378R (LAR) (Bacteriophage T7) (UniProt P00573)", 27.8),
    ("TAATACGACTCACTATAGGGAGAGACAAGCTTGGGTCNNNNNNNNNNNNNNNNNNNNNNNNNNNNNNNNNNNNNNNNAGAAGAGAAAGAGAAGTTAATTAAGGATCCTCAG (double strand) [Template 3]", "T7 RNA polymerase Y639L/H784A/K378R (LAR) (Bacteriophage T7) (UniProt P00573)", 20.2),
    ("TAATACGACTCACTATAGGGAGAATTCCGACCAGAAGCTTNNNNNNNNNNNNNNNNNNNNNNNNNNNNNNNNNNNNNNNNCATATGTGCGTCTACATGGATCCTCA (double strand) [Template 1]", "T7 RNA polymerase Y639L/H784A/K378R (LAR) (Bacteriophage T7) (UniProt P00573)", 18.7),
    ("TAATACGACTCACTATAGGGAGAGCGGAAGCCGTGCTGGGGCCNNNNNNNNNNNNNNNNNNNNNNNNNNNNNNNNNNNNNNNNCATAACCCAGAGGTCGATGGATC (double strand) [Template 2]", "T7 RNA polymerase Y639L/H784A/K378R (LAR) (Bacteriophage T7) (UniProt P00573)", 17.4),
]
